Just for reference, patent US20200157194A1 is where these values come from.

- targetDesc: T1, recombinant human GREM1 (hGREM1-His; C-terminal 10His tagged, R&D, #5190-GR) (human, UniProt O60565 25-184)
- T1 construct: range 25-184; also called recombinant human GREM1 with a C-terminal decahistidine tag
- T1 sequence: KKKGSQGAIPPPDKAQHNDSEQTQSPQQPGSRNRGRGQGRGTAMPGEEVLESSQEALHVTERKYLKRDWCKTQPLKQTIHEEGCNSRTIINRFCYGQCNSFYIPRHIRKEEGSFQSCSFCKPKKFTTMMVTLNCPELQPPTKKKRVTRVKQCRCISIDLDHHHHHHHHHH
- assayOverview: BLI Octet, mAb captured, 100 nM GREM1 without vs with 5 uM heparin;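 also: octet Red96 biolayer interferometry at 25 °C, antibodies captured on anti-human IgG Fc biosensors, association of GREM1 measured with versus without heparin in HEPES-buffered saline, pH 7.4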
Reduction in Signal from Heparin at 300 sec reference
testReadout: Reduction in Signal from Heparin at 300 sec (nm)

[
  {
    "binder": "H4H2892N (antibody, human IgG4, V domains shown, H4H prefix = human IgG4 Fc) VH: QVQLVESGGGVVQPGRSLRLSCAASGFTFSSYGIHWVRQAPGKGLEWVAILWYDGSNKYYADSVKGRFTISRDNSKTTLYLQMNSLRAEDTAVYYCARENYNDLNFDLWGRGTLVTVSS VL: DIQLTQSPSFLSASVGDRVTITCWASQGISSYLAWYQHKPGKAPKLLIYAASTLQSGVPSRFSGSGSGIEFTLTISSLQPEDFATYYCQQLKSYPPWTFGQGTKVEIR",
    "measuredResult": 0
  },
  {
    "binder": "H4H6232P (antibody, human IgG4, V domains shown, H4H prefix = human IgG4 Fc) VH: QVQLVQSGAEVKKPGASVKVSCKVSGYTLTELSMHWVRQAPGKGLEWMGGFDPEDGETIYAQKFQGRLTMTEDTSTDTAYMELSSLRSEDTAVYYCATDDYDILTSYPYNMDVWGQGTTVTVSS VL: DIQMTQSPSSLSASVGDRVTITCRASQSINNYLNWYQQKPGKAPKLLIYAASSLQSGVPSRFSGSGSGTDFTLTISSLQPEDFGTYYCQQSDSTPFTFGPGTKVDIK",
    "measuredResult": 0.02
  },
  {
    "binder": "H4H6252P (antibody, human IgG4, V domains shown, H4H prefix = human IgG4 Fc; also called H4H6252S) VH: QVQLVESGGGVVQPGRSLRLSCAASGFTFSNYGMHWVRQAPGRGLEWVAVIWFDGSNKYYADSVKGRFTISRDNSKNTLYLQMNSLRSEDTAVYYCTRDDYGDYDYPFDYWGQGTLVTVSS VL: DIQMTQSPSSLSASVGDRVTITCRASQGIRNDLGWYQQKPGKAPKRLIYAASSLQSGVPSRFSGSGSGTEFTLTISSLQPEDFATYYCLQYNTYPPFTFGPGTKVDIK",
    "measuredResult": 0.09
  }
]
